# System: Leishmania donovani
# TEST: Antileishmanial activity against Leishmania donovani LV9 promastigotes by MTT method
# Assay type: functional, organism-based
VALUE TYPE: pIC50
Please report pIC50 as the negative decimal logarithm of the molar concentration, giving only the number.

[ask] Please look up its pIC50: CC(=O)OC[C@H]1O[C@@H](n2cc(C3C(C#N)=C(N)OC4=C3C(=O)CC(c3ccccc3)C4)c(=O)[nH]c2=O)C[C@@H]1OC(C)=O (stereo not given in full)
[reply] 4.07

[ask] Please look up its pIC50: CC1=NN(c2ccccc2)C(=O)/C1=C(\C)c1cn([C@H]2C[C@H](O)[C@@H](CO)O2)c(=O)[nH]c1=O
[reply] 5.52

[ask] Please look up its pIC50: CCOC(=O)/C(C#N)=C/c1cn([C@H]2C[C@H](O)[C@@H](CO)O2)c(=O)[nH]c1=O
[reply] 5.72

[ask] Please look up its pIC50: CCOC(=O)/C(C#N)=C/c1cn([C@H]2C[C@H](OC(C)=O)[C@@H](COC(C)=O)O2)c(=O)[nH]c1=O
[reply] 4.41

[ask] Please look up its pIC50: CC(=O)OC[C@H]1O[C@@H](n2cc(C3C(C#N)=C(N)OC4=C3C(=O)CC(c3ccc(F)cc3)C4)c(=O)[nH]c2=O)C[C@@H]1OC(C)=O (stereo not given in full)
[reply] 4.02

[ask] Please look up its pIC50: N#C/C=C/c1cn([C@H]2C[C@H](O)[C@@H](CO)O2)c(=O)[nH]c1=O
[reply] 4.04

[ask] Please look up its pIC50: COC(=O)/C(C#N)=C/c1cn([C@H]2C[C@H](O)[C@@H](CO)O2)c(=O)[nH]c1=O
[reply] 5.14

[ask] Please look up its pIC50: N#CC1=C(N)OC2=C(C(=O)CC(c3ccc(F)cc3)C2)C1c1cn([C@H]2C[C@H](O)[C@@H](CO)O2)c(=O)[nH]c1=O (stereo not given in full)
[reply] 5.08

* * *

# System: Leishmania donovani
# TEST: Antileishmanial activity against Leishmania donovani LV9 promastigotes by MTT method
# Format: functional, organism-based
VALUE TYPE: pIC50
Please report pIC50 as the negative decimal logarithm of the molar concentration, giving only the number.

[ask] Please look up its pIC50: CCOC(=O)C1=C(N)OC2=C(C(=O)CCC2)C1c1cn([C@H]2C[C@H](O)[C@@H](CO)O2)c(=O)[nH]c1=O (some centres undefined)
[reply] 4.98

[ask] Please look up its pIC50: C[C@@H]1[C@H](O)[C@@H](C)/C=C/C=C/C=C/C=C/C=C/C=C/C=C/[C@H](O[C@@H]2O[C@H](C)[C@@H](O)[C@H](N)[C@@H]2O)C[C@@H]2O[C@](O)(C[C@@H](O)C[C@@H](O)[C@H](O)CC[C@@H](O)C[C@@H](O)CC(=O)O[C@H]1C)C[C@H](O)[C@H]2C(=O)O
[reply] 7.00

* * *

# System: Leishmania donovani
# TEST: Antileishmanial activity against Leishmania donovani LV9 promastigotes by MTT method
# Format: functional, organism-based
pIC50: −log10 of the molar value.
Where pIC50 equals or exceeds 5, the correct label is Condition met; where it does not, the label is Condition not met.

[ask] # bool: pIC50 of CC(=O)OC[C@H]1O[C@@H](n2cc(C=C(C#N)C#N)c(=O)[nH]c2=O)C[C@@H]1OC(C)=O >= 5
[reply] Condition not met

[ask] # bool: pIC50 of CC(=O)OC[C@H]1O[C@@H](n2cc(C3C(C#N)=C(N)OC4=C3C(=O)CC(C)(C)C4)c(=O)[nH]c2=O)C[C@@H]1OC(C)=O (some centres not stated) >= 5
[reply] Condition not met

[ask] # bool: pIC50 of CC(=O)OC[C@@H]1O[C@H](n2cc(C3C(C#N)=C(N)OC4CC(c5ccc(N(C)C)cc5)CC(=O)C43)c(=O)[nH]c2=O)C[C@H]1OC(C)=O (some centres not stated) >= 5
[reply] Condition not met

[ask] # bool: pIC50 of O=Cc1cn([C@H]2C[C@H](O)[C@@H](CO)O2)c(=O)[nH]c1=O >= 5
[reply] Condition met

[ask] # bool: pIC50 of N#CC(C#N)=Cc1cn([C@H]2C[C@H](O)[C@@H](CO)O2)c(=O)[nH]c1=O >= 5
[reply] Condition met

[ask] # bool: pIC50 of CC(=O)OC[C@H]1O[C@@H](n2cc(C3C(C#N)=C(N)OC4=C3C(=O)CCC4)c(=O)[nH]c2=O)C[C@@H]1OC(C)=O (some centres not stated) >= 5
[reply] Condition not met

[ask] # bool: pIC50 of CC(=O)OC[C@H]1O[C@@H](n2cc(C3C(C#N)=C(N)OC4=C3C(=O)CC(C)C4)c(=O)[nH]c2=O)C[C@@H]1OC(C)=O (some centres not stated) >= 5
[reply] Condition not met

* * *

# Test system: Leishmania donovani
# TEST: Antileishmanial activity against Leishmania donovani LV9 promastigotes by MTT method
# Assay type: functional, organism-based
Would you kindly list IC50 for each of these compounds?

[ask] Please look up its IC50: CC(=O)OC[C@H]1O[C@@H](n2cc(/C=C/C#N)c(=O)[nH]c2=O)C[C@@H]1OC(C)=O
[reply] > 100 µM

[ask] Please look up its IC50: CN(C)c1ccc2c(c1)OC(N)=C(C#N)C2c1cn([C@H]2C[C@H](O)[C@@H](CO)O2)c(=O)[nH]c1=O (some centres not stated)
[reply] > 100 µM

[ask] Please look up its IC50: N#CC1=C(N)Oc2cc3ccccc3c(O)c2C1c1cn([C@H]2C[C@H](O)[C@@H](CO)O2)c(=O)[nH]c1=O (some centres not stated)
[reply] > 100 µM

[ask] Please look up its IC50: CC(=O)OC[C@H]1O[C@@H](n2cc(/C=C\C#N)c(=O)[nH]c2=O)C[C@@H]1OC(C)=O
[reply] > 100 µM

[ask] Please look up its IC50: N#CC1=C(N)OC2=C(C(=O)CC(c3ccc(Cl)cc3)C2)C1c1cn([C@H]2C[C@H](O)[C@@H](CO)O2)c(=O)[nH]c1=O (some centres not stated)
[reply] > 100 µM

[ask] Please look up its IC50: CC1(C)CC(=O)C2=C(C1)OC(N)=C(C#N)C2c1cn([C@H]2C[C@H](O)[C@@H](CO)O2)c(=O)[nH]c1=O (some centres not stated)
[reply] > 100 µM

[ask] Please look up its IC50: CCOC(=O)C1=C(N)OC2=C(C(=O)CC(C)(C)C2)C1c1cn([C@H]2C[C@H](OC(C)=O)[C@@H](COC(C)=O)O2)c(=O)[nH]c1=O (some centres not stated)
[reply] > 100 µM
